Assay: physchem
Conditions: 25 °C, pH 5, fessif, kinetic from dmso stock
measured_endpoint: solubility at 2 h
I'd appreciate it if you wrote the number followed by its unit.

Consider the worked cases shown below.
QUERY: May I ask what solubility at 2 h has been recorded for Cc1n[nH]c2nc(-c3ccc(NS(=O)(=O)c4ccncc4F)cc3)nc(NCCN(C)C)c12 [Compound 15] ?
RESULT: 289 µM

QUERY: May I ask what solubility at 2 h has been recorded for Cc1n[nH]c2nc(-c3ccc(NS(=O)(=O)c4ccccn4)cc3)nc(NCCN(C)CCO)c12 [Compound 20] ?
RESULT: 277 µM

QUERY: May I ask what solubility at 2 h has been recorded for Cc1n[nH]c2nc(-c3ccc(NS(=O)(=O)c4cc(F)ccc4F)cc3)nc(NCCN3CCCC3)c12 [Compound 33] ?
RESULT: 298 µM

Continuing:
QUERY: May I ask what solubility at 2 h has been recorded for COc1ccnc(S(=O)(=O)Nc2ccc(-c3nc(O[C@@H]4CCN(C)C[C@@H]4F)c4c(C)n[nH]c4n3)cc2)c1 [Compound 62] ?
RESULT: 16.2 µM

###

Experiment: physchem
Conditions: 25 °C, pH 5, fessif, kinetic from dmso stock
Measured solubility at 2 h by item
Please reply with the bare figure in µM and do not write the unit itself.

QUERY: May I ask what solubility at 2 h has been recorded for Cc1n[nH]c2nc(-c3ccc(NS(=O)(=O)c4ccc(C#N)cc4)cc3)nc(OC3CCN(C(C)C)CC3)c12 [Compound 3] ?
RESULT: 325

QUERY: May I ask what solubility at 2 h has been recorded for COc1ccncc1S(=O)(=O)Nc1ccc(-c2nc(NCCN(C)C)c3c(C)n[nH]c3n2)cc1 [Compound 19] ?
RESULT: 297

QUERY: May I ask what solubility at 2 h has been recorded for Cc1n[nH]c2nc(-c3ccc(NS(=O)(=O)c4ccc(CN)cc4)cc3)nc(OC3CCN(C(C)C)CC3)c12 [Compound 4] ?
RESULT: 17.6

###

Test: physchem
Settings: 25 °C, pH 5, fessif, kinetic from dmso stock
Label Met when solubility at 2 h is at or above 200 µM; anything below gets Not met.

Here are 5 compounds together with their reported answers.
QUERY: Entry Cc1n[nH]c2nc(-c3ccc(NS(=O)(=O)c4cc(Cl)ccc4F)cc3)nc(NCCN3CCOCC3)c12 : is its solubility at 2 h no less than 200 µM?
RESULT: Met

QUERY: Entry Cc1n[nH]c2nc(-c3ccc(NS(=O)(=O)C(C)C)cc3)nc(OC3CCN(C(C)C)CC3)c12 : is its solubility at 2 h no less than 200 µM?
RESULT: Met

QUERY: Entry Cc1n[nH]c2nc(-c3ccc(NS(=O)(=O)c4cc(Cl)ccc4F)cc3)nc(O[C@@H]3CCN(CC(F)F)C[C@@H]3F)c12 : is its solubility at 2 h no less than 200 µM?
RESULT: Not met

QUERY: Entry Cc1n[nH]c2nc(-c3ccc(NS(=O)(=O)c4cc(Cl)ccc4F)cc3)nc(O[C@H]3CCNC[C@H]3F)c12 : is its solubility at 2 h no less than 200 µM?
RESULT: Not met

QUERY: Entry Cc1n[nH]c2nc(-c3ccc(NS(=O)(=O)c4cc(C(F)(F)F)ccn4)cc3)nc(NCCN(C)C)c12 : is its solubility at 2 h no less than 200 µM?
RESULT: Met

Continuing:
QUERY: Entry Cc1n[nH]c2nc(-c3ccc(NS(=O)(=O)c4cc(Cl)ccc4F)cc3)nc(O[C@H]3CCNC[C@@H]3F)c12 : is its solubility at 2 h no less than 200 µM?
RESULT: Met

QUERY: Entry Cc1n[nH]c2nc(-c3ccc(NS(=O)(=O)N4CCCCC4)cc3)nc(OC3CCN(C(C)C)CC3)c12 : is its solubility at 2 h no less than 200 µM?
RESULT: Met

###

Experiment: physchem
Conditions: 25 °C, pH 7.4, aqueous buffer, kinetic from dmso stock
Measured solubility at 2 h by item
Please reply with the bare figure in µM and do not write the unit itself.

Consider the worked cases shown below.
QUERY: May I ask what solubility at 2 h has been recorded for Cc1n[nH]c2nc(-c3ccc(NS(=O)(=O)c4cc(Cl)ccc4F)cc3)nc(OC3CN(C(C)C)C3)c12 [Compound 17] ?
RESULT: 1.12

QUERY: May I ask what solubility at 2 h has been recorded for COc1ccncc1S(=O)(=O)Nc1ccc(-c2nc(NCCN(C)C)c3c(C)n[nH]c3n2)cc1 [Compound 19] ?
RESULT: 37

QUERY: May I ask what solubility at 2 h has been recorded for Cc1n[nH]c2nc(-c3ccc(NS(=O)(=O)c4cc(Cl)ccc4F)cc3)nc(O[C@@H]3CCNC[C@H]3F)c12 [Compound 53] ?
RESULT: 11.3

QUERY: May I ask what solubility at 2 h has been recorded for CC(=O)OCCN(C)CCNc1nc(-c2ccc(NS(=O)(=O)c3cc(Cl)ccc3F)cc2)nc2[nH]nc(C)c12 [Compound 87] ?
RESULT: 0.6

QUERY: May I ask what solubility at 2 h has been recorded for Cc1n[nH]c2nc(-c3ccc(NS(=O)(=O)c4cc(Cl)ccc4F)cc3)nc(NC3CN(C(C)C)C3)c12 [Compound 25] ?
RESULT: 15.6

Continuing:
QUERY: May I ask what solubility at 2 h has been recorded for Cc1n[nH]c2nc(-c3ccc(NS(=O)(=O)c4cc(C(F)(F)F)ccn4)cc3)nc(NCCN(C)C)c12 [Compound 30] ?
RESULT: 295

QUERY: May I ask what solubility at 2 h has been recorded for Cc1n[nH]c2nc(-c3ccc(NS(=O)(=O)c4cc(Cl)ccc4F)cc3)nc(OCCN(C)CCO)c12 [Compound 86] ?
RESULT: 0.66

###

Test: physchem
Conditions: 25 °C, pH 7.4, aqueous buffer, kinetic from dmso stock
measured_endpoint: log10 solubility at 2 h (log10 of the value in µM)
Please note: log10 values; quantity solubility at 2 h; unit µM.

Consider the worked cases shown below.
QUERY: May I ask what log10 solubility at 2 h has been recorded for Cc1n[nH]c2nc(-c3ccc(NS(=O)(=O)c4cc(Cl)ccc4F)cc3)nc(O[C@H]3CCNC[C@@H]3F)c12 ?
RESULT: 1.23

QUERY: May I ask what log10 solubility at 2 h has been recorded for Cc1n[nH]c2nc(-c3ccc(NS(=O)(=O)c4ccc(CN)cc4)cc3)nc(OC3CCN(C(C)C)CC3)c12 ?
RESULT: 2.47

Continuing:
QUERY: May I ask what log10 solubility at 2 h has been recorded for Cc1n[nH]c2nc(-c3ccc(NS(=O)(=O)c4ccc(C#N)cc4)cc3)nc(OC3CCN(C(C)C)CC3)c12 ?
RESULT: 1.28

QUERY: May I ask what log10 solubility at 2 h has been recorded for Cc1n[nH]c2nc(-c3ccc(NS(=O)(=O)c4cc(Cl)ccc4F)cc3)nc(NCCN(C)C)c12 ?
RESULT: 0.93

QUERY: May I ask what log10 solubility at 2 h has been recorded for Cc1n[nH]c2nc(-c3ccc(NS(=O)(=O)C(C)C)cc3)nc(OC3CCN(C(C)C)CC3)c12 ?
RESULT: 1.60

QUERY: May I ask what log10 solubility at 2 h has been recorded for [2H]C([2H])([2H])N1CC[C@@H](Oc2nc(-c3ccc(NS(=O)(=O)c4cc(Cl)ccc4F)cc3)nc3[nH]nc(C)c23)[C@@H](F)C1 ?
RESULT: -0.14

QUERY: May I ask what log10 solubility at 2 h has been recorded for Cc1n[nH]c2nc(-c3ccc(NS(=O)(=O)c4cc(F)ccc4F)cc3)nc(NCCN(C)C)c12 ?
RESULT: 0.90

###

Assay: in vivo
Conditions: male, CD1, mouse, po, 30 mg/kg
Label met when bioavailability is at or above 3%; anything below gets not met.

Here are 3 compounds together with their reported answers.
QUERY: Entry CCC(=O)OCCN(C)CCNc1nc(-c2ccc(NS(=O)(=O)c3cc(Cl)ccc3F)cc2)nc2[nH]nc(C)c12 : is its bioavailability no less than 3%?
RESULT: met

QUERY: Entry Cc1n[nH]c2nc(-c3ccc(NS(=O)(=O)c4cc(F)ccc4F)c(F)c3)nc(NCCN(C)C)c12 : is its bioavailability no less than 3%?
RESULT: met

QUERY: Entry Cc1n[nH]c2nc(-c3ccc(NS(=O)(=O)c4cc(Cl)ccc4F)cc3)nc(NCCN(C)CCOC(=O)C(C)(C)C)c12 : is its bioavailability no less than 3%?
RESULT: met

Continuing:
QUERY: Entry Cc1n[nH]c2nc(-c3ccc(NS(=O)(=O)c4cc(Cl)ccc4F)c(F)c3)nc(OC3CCN(C)CC3)c12 : is its bioavailability no less than 3%?
RESULT: met

QUERY: Entry Cc1n[nH]c2nc(-c3ccc(NS(=O)(=O)c4cc(Cl)ccc4F)c(F)c3)nc(NCCN(C)C)c12 : is its bioavailability no less than 3%?
RESULT: met

QUERY: Entry Cc1n[nH]c2nc(-c3ccc(NS(=O)(=O)c4cc(Cl)ccc4F)c(F)c3)nc(OC3CCN(C(C)C)CC3)c12 : is its bioavailability no less than 3%?
RESULT: met

QUERY: Entry Cc1n[nH]c2nc(-c3ccc(NS(=O)(=O)c4cc(Cl)ccc4F)cc3)nc(NCCN(C)CCOC(=O)C(C)C)c12 : is its bioavailability no less than 3%?
RESULT: met
